The reported numbers originate from patent US10676429B2.

I'd be grateful if you could share measured pEC50 for these entries.
- Tested on: HBV
- test: Anti-HBV activity in stable transfected HepG2.2.15 cell line (HBV DNA from secreted virions, realtime PCR)
- Assay type: cell-based
- condition-description: Hepatitis B virus, HepG2.2.15, 144 h, HepG2.2.15 cells, 6 days of treatment, secreted virion HBV DNA; read-out: HepG2 2.15 EC50
Value format note: pEC50 is -log10 of concentration (mol/L); just state the number.

Request: Given the compound CC1(NS(=O)(=O)c2cccc(C(=O)Nc3ccc(F)c(CF)c3)c2)COC1 [Compound 127] , write its reported pEC50.
Response: 6.64

Request: Given the compound Cc1cc(NC(=O)c2cccc(S(=O)(=O)NC(C)C)c2)cc(C)c1F [Compound 186] , write its reported pEC50.
Response: 6.70

Request: Given the compound CC1(NS(=O)(=O)c2cccc(C(=O)Nc3ccc(F)cc3)c2)CCOCC1 [Compound 83] , write its reported pEC50.
Response: 5.98

Request: Given the compound CC1(NS(=O)(=O)c2cccc(C(=O)Nc3ccc(F)c(Br)c3)c2)COC1 [Compound 160] , write its reported pEC50.
Response: 6.70

Request: Given the compound COc1ccc(NC(=O)c2ccc(Cl)c(S(=O)(=O)N3CCCCCC3)c2)cc1 [Compound 32] , write its reported pEC50.
Response: 5.59

Request: Given the compound Cc1cc(NC(=O)c2cccc(S(=O)(=O)NC3CCC(F)(F)C3)c2)ccc1F (centres unmarked) [Compound 229] , write its reported pEC50.
Response: 6.70

Request: Given the compound Cc1cc(NC(=O)c2cccc(S(=O)(=O)NC3(C)COC3)c2)c(C)cc1F [Compound 119] , write its reported pEC50.
Response: 5.51

Request: Given the compound Cc1cc(NC(=O)c2cc(S(=O)(=O)NC3(C)COC3)ccc2C)ccc1F [Compound 122] , write its reported pEC50.
Response: 6.89
